# systemUnderTest: T1, human LAG3 expressed on cells (human, UniProt P18627 23-525)
# T1 construct: whole, on cells
# T1 sequence (looked up): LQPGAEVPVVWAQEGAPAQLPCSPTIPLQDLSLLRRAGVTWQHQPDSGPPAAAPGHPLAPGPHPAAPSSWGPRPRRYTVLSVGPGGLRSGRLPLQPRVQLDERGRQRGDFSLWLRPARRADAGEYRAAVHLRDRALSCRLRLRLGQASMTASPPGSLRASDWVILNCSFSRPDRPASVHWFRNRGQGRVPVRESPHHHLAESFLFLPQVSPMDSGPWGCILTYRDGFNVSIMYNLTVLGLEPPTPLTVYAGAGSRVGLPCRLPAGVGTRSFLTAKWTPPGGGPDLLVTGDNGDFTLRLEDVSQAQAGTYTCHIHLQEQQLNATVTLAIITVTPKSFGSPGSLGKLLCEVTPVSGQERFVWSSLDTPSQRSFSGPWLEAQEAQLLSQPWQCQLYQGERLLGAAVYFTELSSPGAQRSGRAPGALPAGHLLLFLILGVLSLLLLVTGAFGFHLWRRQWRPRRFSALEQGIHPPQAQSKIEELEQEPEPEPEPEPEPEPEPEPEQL
# experiment: cell ELISA, 293T-hLAG3 cells
# Description: Each well was treated with stimulants. The cells were then fixed and blocked with Blocking buffer. The Primary antibodies were added. The wells were washed and a HRP-conjugated secondary antibody was added. The wells were washed with 1x PBS and a solution containing TMB (Biopanda, TMB-S-004) was added. The TMB reacted with HRP to change the color thereof from colorless to blue. An acid stop solution (Solarbio, C1058) was then added to stop the reaction and change the blue color to yellow. […]
measuredAttribute: OD450 at 10 ug/ml

>>> observed("sdAb No. 17-H4 (VHH, Modified sdAb No. 17 (CDR2 DG to EG); not shown: Fc part implied by anti-human IgG1 Fc detection) VHH: QLQLVESGGGLVQPGGSLRLSCAASGLTLDGYAIGWFRQAPGKEREGLACISGSEGSTHYLDSVKGRFTISRDNGKNTMALQMNSLQFGDTAIYYCAARRGSCSGSWTYWGQGTQVTVSS")
1.18
>>> observed("sdAb No. 27-H2 (VHH, Modified sdAb No. 27 (CDR2 DG to EG); not shown: Fc part implied by anti-human IgG1 Fc detection) VHH: QVQLVESGGGLVQPGGSLRLSCAASGFTLDYYAIGWFRQAPGKEREGVSCIRSSEGSTYYADSVKGRFTISSDNTKNTVYLQMNSLKPEDTAVYYCATDRYSDCRGPYENWGQGTQVTVSS")
1.2
